B1: PKD2L1 (parent)
chain: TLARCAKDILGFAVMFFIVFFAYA

variants of: B1; experiment: protein stability index of a GFP-peptide fusion (GPS, HEK-293T) (PSI 1-6); higher = more stable; details: c terminus: a fixed tail appended;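 also: lentivirally expressed fusions sorted by FACS into six bins by GFP to DsRed ratio, PSI derived from sequencing read proportions per bin multiplied by bin number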
I'd be grateful if you could share measured protein stability index for these entries.
One number for each entry.

{"columns": ["mutation_name", "readout_kind", "endpoint_value"],
 "data": [
  ["A13E", "protein stability index", 2.82]
]}

Hi! Can you tell me protein stability index for each of these variants?
1. A24Q
2. R4G
3. V14D
4. K7D
5. Y23S
6. F17K

**Result**
1: 2.42; 2: 3.84; 3: 2.59; 4: 3.17; 5: 2.47; 6: 2.06
